Origin of values: ChEMBL document CHEMBL3603779

PROCEDURE SUMMARY: Volume of distribution at steady state in Han Wistar rat at 3 mg/kg, iv by LCMS/MS method
Type: ADME, organism-based
REPORTED CONDITIONS: in vivo, read-out: Vdss
TEST READOUT: Vd
Please state the number and follow it with the unit.

[in] Please look at this compound and report its Vd: CCn1c([C@@H](C)NS(=O)(=O)c2ccc(C#N)nc2)nc2cnc(C(F)(F)F)cc21
[out] 1.2 L/kg

====

Target chain: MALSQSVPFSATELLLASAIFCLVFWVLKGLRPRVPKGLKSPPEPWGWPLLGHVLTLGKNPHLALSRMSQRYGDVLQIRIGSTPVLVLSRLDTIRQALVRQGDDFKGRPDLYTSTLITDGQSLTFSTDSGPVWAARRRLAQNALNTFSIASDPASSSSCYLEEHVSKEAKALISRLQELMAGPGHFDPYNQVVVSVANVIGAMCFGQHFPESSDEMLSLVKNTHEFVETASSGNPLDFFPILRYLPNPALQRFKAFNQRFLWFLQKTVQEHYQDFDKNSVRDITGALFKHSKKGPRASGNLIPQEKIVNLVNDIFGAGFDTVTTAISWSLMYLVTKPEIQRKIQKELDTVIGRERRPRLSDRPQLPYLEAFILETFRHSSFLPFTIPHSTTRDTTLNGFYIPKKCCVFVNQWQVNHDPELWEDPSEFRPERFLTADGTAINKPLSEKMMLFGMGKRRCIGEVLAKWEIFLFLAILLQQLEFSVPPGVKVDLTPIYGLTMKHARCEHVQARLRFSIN
TEST READOUT: IC50

[in] Please look at this compound and report its IC50: CCn1c([C@@H](C)NS(=O)(=O)c2ccc(C#N)nc2)nc2cnc(C3CC3)cc21
[out] > 20 µM
